Reported MFI values for the following binders.
target_or_test_system: T1, human PD-1 (Programmed Cell Death 1), expressed on cells (human, UniProt Q15116 25-288)
T1 construct: also called human PD-1 on 293 cells
T1 sequence (Q15116 25-288 limits assumed): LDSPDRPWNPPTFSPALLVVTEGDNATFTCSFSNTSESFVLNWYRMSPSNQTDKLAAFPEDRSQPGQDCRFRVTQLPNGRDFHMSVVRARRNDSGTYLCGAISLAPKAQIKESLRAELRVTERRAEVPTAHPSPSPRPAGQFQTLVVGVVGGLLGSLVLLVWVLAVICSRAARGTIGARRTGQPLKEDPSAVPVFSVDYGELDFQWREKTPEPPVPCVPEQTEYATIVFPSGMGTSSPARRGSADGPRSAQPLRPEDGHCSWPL
protocol_notes: cell binding; 0.2 ug/ml IgG on activated human CD4+ cells, 37 C

{"binder": "mAb 7G3 (antibody, V domains shown, Murine IgG from a hybridoma) VH: QVQLQQSGTELVRPGVSVKISCKGSGYSFTDYALHWMKQSHAKSLEWIGVISTHYGDTVYNQRFKGKATMTVDKSSSTAYMELARLTSEDSAIYYCAREGYGSLFYFDQWGQGTPLTVS VL: CLMTQTPLSLPVSLGDQASISCRSSQTIVHSDGNTYLEWYLQKSGQSPKLLIYKVSNRFSGVPDRFSGSGSGTDFTLKISRVEAEDLGVYYCFQGSHVPYTFGGGTRLEIRR", "MFI [MFI]": 129}
{"binder": "mAb 1.8A10 (antibody, V domains shown, Murine IgG from a hybridoma) VH: EVQLVESGGGLVKPGGSLKLSCAASGFTFSNYDMSWIRQTPEKRLEWVAYISGGGGNTYYPDTLKGRFTISRDNAKNTLYLQMSSLKSEDTAMFYCVRISLTGIFDYWGQGTTLTVSS VL: DVLMTQTPLSLPVSLGDQASISCRSSQSIVQSNGNTYLEWYLQKPGQSPKLLIYKVSNRFSGVPDRFSGSGSGTDFTLKISRVEAEDLGVYYCFQGSHVPWTFGGGTKLEIKR", "MFI [MFI]": 129}
{"binder": "mAb 1G7 (antibody, V domains shown, Murine IgG from a hybridoma) VH: EIQLQQSGPELVKPGASVKVSCKASGYAFTSYNIYWVKQSHGKSLEWIGYIDLYNGDTSYNEKFKGKATLTVDKSASTAYMHLNSLTSEDSAVYYCSREGRLSFDYWGQGTLVTVSA VL: DIVLTQSPASLAVSLGQRATISCRASESVDSYGNSFMNWYQQKPGQPLKLLIYLASNLDSGVPARFSGSGSGTDFSLTIDPVEADDPATYYCQQNNEVPLTFGAGTKLELKR", "MFI [MFI]": 137}
{"binder": "mAb 3H4 (antibody, V domains shown, Murine IgG from a hybridoma) VH: QIQLQQSGPELVKPGASVKISCKASGYTFTDYYINWVKQKPGQGLEWIGWIYPGSVNTKYNEKFRGKATLTVDTSSSTAYIQLSGLTSEDTAVYFCARYSNWFFDVWGAGTAVTVS VL: DIVMTQSPSSLSASLGERVSLTCRASQEISGYLSWLQQKPDGTIKRLIYAASTLDSGVPKRFSGSRSGSDYSLSISSLESEDFADYYCLQYASYPYTFGGGTKLEIKR", "MFI [MFI]": 130}

All figures here come from patent US20110008369A1.
